Each item that follows carries a reported % Inhibition.
tested on: P. falciparum stage V gametocytes; parameters: BacTiter-Glo ATP luminescence viability of purified stage V gametocytes in 384-well plates, per cent inhibition versus DMSO; details: 48 h, 5 µM; inhibitor
The campaign covered roughly 13,000 compounds. About 3,200 (25%) showed an effect of 50% or more. The list shows a part of the results.
Respond with the bare value in %.

>  <compound>
CC(C)NCc1cccc(-c2cccc(NC(=O)c3ccc(C#N)cc3)c2)c1

>  <valueType>
% Inhibition

>  <unitsLabel>
%

>  <measured>
89.01

$$$$

Please examine the following record next.
Exercise: Which % Inhibition reading was recorded for the compound "CC(C)C[C@@H](C(=O)N[C@H](C(=O)Nc1nccs1)C(C)(C)C)[C@H](CCC(F)(F)F)N(O)C=O" ?
Key: 1.039

* * *

Each item that follows carries a reported % Inhibition.
test system: P. falciparum stage V gametocytes; set-up: BacTiter-Glo ATP luminescence viability of purified stage V gametocytes in 384-well plates, per cent inhibition versus DMSO; conditions: 48 h, 5 µM; inhibitor
In all, about 13,000 compounds went through this assay and about 3,200 (25%) showed an effect of 50% or more. This is one part of the list.
Respond with the bare value in %.

Below are worked cases with known answers.
>  <molSmiles>
O=C(Nc1ccsc1)Nc1cccc(-c2cccc(-c3nc4ccc(C(F)(F)F)cc4[nH]3)c2)c1

>  <unitsLabel>
%

>  <% Inhibition>
-52.37

$$$$
>  <molSmiles>
CS(=O)(=O)CCNc1cc(N2CCc3ncnc(Nc4ccc(OCc5cccc(F)c5)c(Cl)c4)c3C2)ncn1

>  <unitsLabel>
%

>  <% Inhibition>
58.91

$$$$
>  <molSmiles>
CC(C)CNCc1ccc(OCc2cccc(COc3ccc(CNCC(C)C)cc3I)c2)c(I)c1

>  <unitsLabel>
%

>  <% Inhibition>
108.7

$$$$
>  <molSmiles>
COc1ccc(Oc2cnc(N)nc2N)c(C(C)C)c1

>  <unitsLabel>
%

>  <% Inhibition>
-12.02

$$$$

Exercise: Which % Inhibition reading was recorded for the compound "Nc1ncc(OC2CCCCC2)c(N)n1" ?
Key: 86.08

* * *

system: P. falciparum stage V gametocytes; parameters: BacTiter-Glo ATP luminescence viability of purified stage V gametocytes in 384-well plates, per cent inhibition versus DMSO; conditions: 48 h, 5 µM; inhibitor
Screen size: about 13,000 compounds; about 3,200 (25%) showed an effect of 50% or more. Some of the results follow.
valueType: % Inhibition (%)
Respond with the bare value in %.

Below are worked cases with known answers.
>  <molSmiles>
Cc1cccc2[nH]c(-c3ccc(-c4cccc(NC(=O)Cc5cnc[nH]5)c4)cc3)nc12

>  <unitsLabel>
%

>  <measured>
73.44

$$$$
>  <molSmiles>
O=C(CCc1cnc[nH]1)Nc1ccc(-c2cccc(-c3nc4ccccc4[nH]3)c2)cc1

>  <unitsLabel>
%

>  <measured>
3.081

$$$$

Exercise: Which % Inhibition reading was recorded for the molecule "O=C(CCc1cnc[nH]1)Nc1cccc(-c2ccc(-c3nc4ccccc4[nH]3)cc2)c1" ?
Key: 31.89

Exercise: Which % Inhibition reading was recorded for the molecule "Cc1cccc2[nH]c(-c3cccc(-c4ccc(NC(=O)CCc5cnc[nH]5)cc4)c3)nc12" ?
Key: -12.17

* * *

system: P. falciparum stage V gametocytes; set-up: BacTiter-Glo ATP luminescence viability of purified stage V gametocytes in 384-well plates, per cent inhibition versus DMSO; conditions: 48 h, 5 µM; inhibitor
In all, about 13,000 compounds went through this assay and about 3,200 (25%) showed an effect of 50% or more. This is one part of the list.
Category scheme (% Inhibition): low range: < -10%; mid range: ≥ -10% and < 60%; high range: ≥ 60%

Here are 2 compounds together with their reported answers.
>  <compound>
CC(C)N1CCN(C(=O)c2ccc(CNCCCN3CCN(c4cccc(Cl)c4Cl)CC3)o2)CC1 [TCMDC-136521]

>  <assayTarget>
P. falciparum stage V gametocytes

>  <classAssignment>
low range

$$$$
>  <compound>
CC(C)(C)c1ccc(C(=O)N2CCC3(CC2)C(=O)N(CC(=O)NCC2CCCO2)CN3c2ccccc2)cc1 (stereo not drawn) [TCMDC-125172]

>  <assayTarget>
P. falciparum stage V gametocytes

>  <classAssignment>
low range

$$$$

Exercise: Which class holds CC(C)N1CCN(C(=O)c2ccc(CN(C)CCCN3CCN(c4cccc(Cl)c4Cl)CC3)s2)CC1 [TCMDC-136526] ?
Key: high range

Exercise: Which class holds CC(C)N1CCN(C(=O)c2ccc(CNCCCN3CCN(c4cccc(Cl)c4Cl)CC3)s2)CC1 [TCMDC-136520] ?
Key: high range

Exercise: Which class holds O=C(Nc1ccccc1)N(Cc1cccc(-c2ccc(CNCc3ccc4c(c3)OCO4)cc2)c1)C1CCN(Cc2ccccc2)CC1 [TCMDC-140591] ?
Key: high range

Exercise: Which class holds O=C(Nc1ccc(F)cc1)c1ccc(C(=O)NC2CCN(CC3CCCCC3)CC2)cc1 [TCMDC-136749] ?
Key: low range

Exercise: Which class holds COCC(=O)N(Cc1ccccc1-c1cccc(CNCc2ccc3c(c2)OCO3)c1)C1CCN(Cc2ccccc2)CC1 [TCMDC-140535] ?
Key: mid range

Exercise: Which class holds COCCNC(=O)C(CNC(=O)c1ccc2c(c1)OCO2)NC(=O)c1ccc(-c2ccccc2)cc1 (stereo not drawn) [TCMDC-140308] ?
Key: mid range

Exercise: Which class holds O=C(NC1CCN(CC2(c3ccc(Cl)cc3)CCC2)CC1)c1ccn[nH]1 [TCMDC-124830] ?
Key: mid range

Exercise: Which class holds CC(=O)N(Cc1ccccc1-c1cccc(CNCc2ccc3c(c2)OCO3)c1)C1CCN(Cc2ccccc2)CC1 [TCMDC-140526] ?
Key: high range

Exercise: Which class holds CC(C)c1ccc(CN2CCC(NC(=O)c3ccc(-c4ccccc4F)s3)CC2)cc1 [TCMDC-134345] ?
Key: low range

Exercise: Which class holds O=C(Nc1ccccc1)N(Cc1cccc(-c2cccc(CNCc3ccc4c(c3)OCO4)c2)c1)C1CCN(Cc2ccccc2)CC1 [TCMDC-140590] ?
Key: mid range
